- assayComment: In vitro MTT cytotoxicity assay on MDBK cells
- Format: cell-based, bovine
- reportedConditions: bovine, MDBK cells (NBL-1 strain)
endpointLabel: viability at 24 h, 0.1 µM (%)
Numbers only, in %.

Each of the following entries comes with a recorded value; kindly state viability at 24 h, 0.1 µM for each.
1. C[C@H]1[C@H](C)CC[C@]2(CO)CC[C@]3(C)C(=CC[C@@H]4[C@@]5(C)CC[C@H](O)C(C)(C)[C@@H]5CC[C@]43C)[C@H]12 [Component B-1, Uvaol]
2. Oc1cc(O)c2c(c1)O[C@H](c1ccc(O)c(O)c1)[C@H](O)C2 [Component A-3, Epicatechin]

### Response
[95.6, 103]

Each of the following entries comes with a recorded value; kindly state viability at 24 h, 0.1 µM for each.
1. C[C@H]1[C@H](C)CC[C@]2(C(=O)O)CC[C@]3(C)C(=CC[C@@H]4[C@@]5(C)CC[C@H](O)C(C)(C)[C@@H]5CC[C@]43C)[C@H]12 [Component D-3, Ursolic acid]
2. CC[C@@H](C(=O)[C@@H](C)[C@@H](O)[C@H](C)CCc1ccc(C)c(O)c1C(=O)O)[C@H]1O[C@](CC)([C@H]2CC[C@](O)(CC)[C@H](C)O2)C[C@@H]1C [lasalocid, reference compound]
3. CC1(C)CC[C@]2(C(=O)O)CC[C@]3(C)C(=CC[C@@H]4[C@@]5(C)CC[C@H](O)C(C)(C)[C@@H]5CC[C@]43C)[C@@H]2C1 [Component C-5, Oleanolic acid]

### Response
[92.9, 107, 99.9]

###

Provide the reported Maximum non-toxic concentration of each item.
- Tested on: Madin-Darby bovine kidney (MDBK) cells
- assayComment: In vitro MTT cytotoxicity assay on MDBK cells
- Assay type: cell-based
- reportedConditions: MDBK cells, highest concentration with no significant effect on cell viability
One number for each entry, in µM.

# count of solved cases: 5
[
  {
    "compound": "CC1(C)CC[C@]2(C(=O)O)CC[C@]3(C)C(=CC[C@@H]4[C@@]5(C)CC[C@H](O)C(C)(C)[C@@H]5CC[C@]43C)[C@@H]2C1",
    "valueUnit": "µM",
    "quantitativeReadout": 50
  },
  {
    "compound": "Oc1cc(O)c2c(c1)O[C@H](c1ccc(O)c(O)c1)[C@H](O)C2 [Component A-3, Epicatechin]",
    "valueUnit": "µM",
    "quantitativeReadout": 100
  },
  {
    "compound": "CC1(C)CC[C@]2(C)CC[C@]3(C)C(=CC[C@@H]4[C@@]5(C)CC[C@H](O)C(C)(C)[C@@H]5CC[C@]43C)[C@@H]2C1",
    "valueUnit": "µM",
    "quantitativeReadout": 100
  },
  {
    "compound": "CC[C@@H](C(=O)[C@@H](C)[C@@H](O)[C@H](C)CCc1ccc(C)c(O)c1C(=O)O)[C@H]1O[C@](CC)([C@H]2CC[C@](O)(CC)[C@H](C)O2)C[C@@H]1C [lasalocid, reference compound]",
    "valueUnit": "µM",
    "quantitativeReadout": 1
  },
  {
    "compound": "O=c1c(O[C@@H]2O[C@@H](CO)[C@H](O)[C@H]2O)c(-c2ccc(O)c(O)c2)oc2cc(O)cc(O)c12",
    "valueUnit": "µM",
    "quantitativeReadout": 100
  }
]

Each of the following entries comes with a recorded value; kindly state Maximum non-toxic concentration for each.
1. OC[C@H]1O[C@@H](Oc2ccc(O)cc2)[C@H](O)[C@@H](O)[C@@H]1O
2. COc1cc(C)cc(O)c1
3. C[C@H]1[C@H](C)CC[C@]2(C(=O)O)CC[C@]3(C)C(=CC[C@@H]4[C@@]5(C)CC[C@H](O)C(C)(C)[C@@H]5CC[C@]43C)[C@H]12
4. Cc1cc(O)cc(O)c1
5. COC1OC(CO)C(O)C(O)C1O (stereo not drawn) [Component F-2, β-Methylglucoside]
6. Oc1cc(O)c2c(c1)O[C@H](c1cc(O)c(O)c(O)c1)[C@@H](O)C2
7. O=C(CCc1ccc(O)cc1)c1c(O)cc(O)cc1O[C@@H]1O[C@H](CO)[C@@H](O)[C@H](O)[C@H]1O

### Response
100
100
10
100
100
100
100

Each of the following entries comes with a recorded value; kindly state Maximum non-toxic concentration for each.
1. Oc1cc(O)cc(/C=C/c2ccccc2)c1
2. C[C@H]1[C@H](C)CC[C@]2(CO)CC[C@]3(C)C(=CC[C@@H]4[C@@]5(C)CC[C@H](O)C(C)(C)[C@@H]5CC[C@]43C)[C@H]12
3. O=C1C[C@@H](c2ccc(O)cc2)Oc2cc(O)cc(O)c21

### Response
1. 100
2. 10
3. 100
